# Tested on: L1210 leukemia ip in BDF1 mice, survival T/C
# Run description: NCI In Vivo Anticancer Drug Screen. Data for tumor model L1210 Leukemia (intraperitoneal) in B6D2F1 (BDF1) mice
# Test parameters: endpoint: mean survival time; dose: 400.0 mg/kg/injection; schedule: Q01DX009 (ip); vehicle: saline with Tween-80; higher = longer survival
Toxic doses and inconclusive results are not listed.
Each item that follows carries a reported T/C.

Worked examples, 4 molecules total:
Molecule: O=[N+]([O-])c1ccccc1SSc1ccccc1[N+](=O)[O-]
Assay result: 98 % of control
--
Molecule: COc1cc(OC)cc(C(=O)Cl)c1
Assay result: 86 % of control
--
Molecule: CCCCCCCCCCCCCCCC(=O)Oc1ccc(/C(CC)=C(/CC)c2ccc(OC(=O)CCCCCCCCCCCCCCC)cc2)cc1
Assay result: 91 % of control
--
Molecule: COc1ccc(/C=C/C(=O)O)cc1
Assay result: 97 % of control

// query Reported T/C, molecule `Cc1cc(NC(=O)Nc2ccccc2C)no1` : ____
// result 91 % of control

// query // lookup T/C for NCC(OCC(=O)O)C(Cl)(Cl)Cl (configuration not stated)
// result 90 % of control

// query Could you share which T/C value was measured for `CCC(=O)c1ccccc1NC(C)=O` ?
// result 101 % of control

// query Which T/C is listed for `OC(Cc1cccc(/C=N/N2CCOCC2)n1)(C(F)(F)F)C(F)(F)F` ?
// result 89 % of control

// query For the molecule `Cc1cc(OC(=O)Nc2cccc(Cl)c2C)ccc1Cl` , what T/C is on record?
// result 89 % of control

// query Requested field: T/C. Item: CC1CC(C)(C)N=C(CCC2CCCC2=O)O1 (configuration not stated)
// result 100 % of control

// query Fill blank: measured T/C of the molecule `CCOC(=O)C(=Cc1c[nH]c2ccccc12)C(=O)OCC` is ____.
// result 92 % of control

// query Tell me the measured T/C of `O=C(O)CCCCCCCCC(=O)c1ccccc1` , please.
// result 95 % of control

====

Measured T/C, listed per entry.
# Tested on: L1210 leukemia ip in BDF1 mice, survival T/C
# Run description: NCI In Vivo Anticancer Drug Screen. Data for tumor model L1210 Leukemia (intraperitoneal) in B6D2F1 (BDF1) mice
# Test parameters: endpoint: mean survival time; dose: 200.0 mg/kg/injection; schedule: Q04DX002 (ip); vehicle: saline with Tween-80; higher = longer survival
Inconclusive results and toxic doses are left out.

Compound: CCC(CCC(C)C1CCC2C3CC=C4CC(OC(=O)Nc5ccc(Cl)cc5)CCC4(C)C3CCC12C)C(C)C (stereo not drawn)
T/C: 97 % of control
--
Compound: CCn1c(=S)[nH]c2ccccc2c1=O
T/C: 109 % of control
--
Compound: CN1CCN(P(=O)(c2ccccc2)N2CCN(C)CC2)CC1
T/C: 98 % of control

// query Please look up its T/C: CC1=CC(C)=NC2NNC(=O)C12 (stereo not drawn)
// result 103 % of control

// query Name the reported T/C value associated with the compound `COc1cccc(CCOC(C)=O)c1`
// result 108 % of control

// query # T/C lookup, item CCOCCOCCOC(C)Oc1ccc(Cl)cc1C (stereo not drawn)
// result 100 % of control

// query Requested read-out: T/C. Entry: `CCCCCCCCCCCCC(=O)O`
// result 98 % of control

// query Quick one: T/C for `Cc1cccc(NC(=S)N2CCCCC2)c1` ?
// result 100 % of control

====

# System: L1210 leukemia ip in BDF1 mice, survival T/C
# Run description: NCI In Vivo Anticancer Drug Screen. Data for tumor model L1210 Leukemia (intraperitoneal) in B6D2F1 (BDF1) mice
# Test parameters: endpoint: mean survival time; dose: 100.0 mg/kg/injection; schedule: Q04DX002 (ip); vehicle: Klucel (hydroxypropylcellulose) (HPC); higher = longer survival
# Protocol: The antitumor activity of compounds was measured in mice bearing transplantable tumors. Survival or tumor size were measured and the results are expressed as the measurement made in the treated group (T) divided by the measurement made in the vehicle treated control group (C). The tumor model used in this assay is L1210 Leukemia (intraperitoneal) in B6D2F1 (BDF1) mice
Inconclusive results and toxic doses are left out.
The compounds listed here are annotated with their T/C.

Reference set (4 entries):
Compound: O=C(NC(=S)Nc1ccc([N+](=O)[O-])cc1Cl)c1ccccc1F
T/C: 91 % of control
--
Compound: CCCCC(CCN1CCCC1)(CNC(=O)CN(CC)CC)c1cccc2ccccc12 (stereo unspecified)
T/C: 107 % of control
--
Compound: COC1OC(COS(=O)(=O)c2ccc(C)cc2)C(OC(=O)c2ccccc2)C(OC(=O)c2ccccc2)C1OS(=O)(=O)c1ccc(C)cc1 (stereo unspecified)
T/C: 88 % of control
--
Compound: Nc1nc(Cl)c(N=Nc2ccc(Cl)cc2)c(NC2CC(O)C(CO)C2)n1 (stereo unspecified)
T/C: 104 % of control

// query Need T/C, item `CC(C)(C)S(=O)(=O)CCCl`
// result 88 % of control

// query Param item = CC(=O)OC1CCC2(C)C(=CCC3C2CCC2(C)C3CC3C(c4ccccc4Cl)=NN(c4ccccc4)C32C#N)C1 (stereo unspecified) ; retrieve measured T/C.
// result 95 % of control

====

# System: L1210 leukemia ip in BDF1 mice, survival T/C
# Run description: NCI In Vivo Anticancer Drug Screen. Data for tumor model L1210 Leukemia (intraperitoneal) in B6D2F1 (BDF1) mice
# Test parameters: endpoint: mean survival time; dose: 200.0 mg/kg/injection; schedule: Q01DX001 (ip); vehicle: carboxymethylcellulose (CMC); higher = longer survival
Toxic doses and inconclusive results are not listed.
Property name: T/C

These recorded examples may help you get a feel for the data.
Smiles str: O/N=C1\c2ccccc2-c2cc(Br)ccc21
Property name: T/C
Assay result: 95 % of control
//
Smiles str: CNc1ccc(/C=C2\C=Cc3ccccc32)cc1I
Property name: T/C
Assay result: 95 % of control
//
Smiles str: Cc1c(C(=O)c2ccccc2)c2ccccc2n1C
Property name: T/C
Assay result: 93 % of control
//
Smiles str: CCOC(=O)/C(C(=O)c1ccccc1)=C(\OC(=O)c1ccccc1)c1ccccc1
Property name: T/C
Assay result: 91 % of control
//
Smiles str: CCOC(=O)c1ccc(Nc2nc3ccccc3o2)cc1
Property name: T/C
Assay result: 94 % of control

// query Return reported T/C; argument: `NC(=S)N/N=C/c1cc2c(cc1[N+](=O)[O-])OCO2`
// result 93 % of control

====

# Tested on: L1210 leukemia ip in BDF1 mice, survival T/C
# Run description: NCI In Vivo Anticancer Drug Screen. Data for tumor model L1210 Leukemia (intraperitoneal) in B6D2F1 (BDF1) mice
# Test parameters: endpoint: mean survival time; dose: 200.0 mg/kg/injection; schedule: Q01DX001 (ip); vehicle: carboxymethylcellulose (CMC); higher = longer survival
Inconclusive results and toxic doses are left out.
Property name: T/C

Recorded results for 6 molecules are shown here.
Molecule: CC1(N)COP(=O)(Nc2ccccc2)OC1 (configuration not stated)
Assay result: 92 % of control
//
Molecule: Cc1cccn2c(=O)cc(Cl)nc12
Assay result: 98 % of control
//
Molecule: C(=N/N=C/c1ccccn1)/c1cccnc1
Assay result: 96 % of control
//
Molecule: Cc1nnc(NS(=O)(=O)c2ccc(N=Nc3c(N)n(C)c(=O)n(C)c3=O)cc2)s1
Assay result: 95 % of control
//
Molecule: COc1cccc(C2=CCCCC2)c1
Assay result: 96 % of control
//
Molecule: O=[N+]([O-])/C=C\c1cccc(OCc2ccccc2)c1
Assay result: 92 % of control

Consider now this further molecule.
// query Quick one: T/C of `CCC(=O)O[C@H]1CC[C@H]2[C@@H]3[C@H](C)CC4=CC(=O)CC[C@]4(C)[C@H]3CC[C@]12C` ?
// result 94 % of control

====

# Tested on: L1210 leukemia ip in BDF1 mice, survival T/C
# Run description: NCI In Vivo Anticancer Drug Screen. Data for tumor model L1210 Leukemia (intraperitoneal) in B6D2F1 (BDF1) mice
# Test parameters: endpoint: mean survival time; dose: 400.0 mg/kg/injection; schedule: Q01DX001 (ip); vehicle: saline with Tween-80; higher = longer survival
# Experimental: The antitumor activity of compounds was measured in mice bearing transplantable tumors. Survival or tumor size were measured and the results are expressed as the measurement made in the treated group (T) divided by the measurement made in the vehicle treated control group (C). The tumor model used in this assay is L1210 Leukemia (intraperitoneal) in B6D2F1 (BDF1) mice
Toxic doses and inconclusive results are not listed.
Property name: T/C

Molecule: O=[N+]([O-])c1ccc(Cl)c(OCCOc2ccc(S(=O)(=O)F)cc2)c1
Subject of test: L1210 leukemia ip in BDF1 mice, survival T/C
Assay result: 90 % of control

Molecule: C=CCCCCCCCCCC(CCCCC)C(=O)O (centres undefined)
Subject of test: L1210 leukemia ip in BDF1 mice, survival T/C
Assay result: 92 % of control

Molecule: O=C(O)Cc1ccc(Cl)cc1
Subject of test: L1210 leukemia ip in BDF1 mice, survival T/C
Assay result: 91 % of control

// query Requested read-out: T/C. Entry: `CCCCCCCCCCCC(=O)NC(=O)N1CCOCC1`
// result 94 % of control
